# system-tested: T1, LRP6 E1E2 protein (human, UniProt O75581 20-630, limits assumed)
# T1 construct: domain: E1E2
# T1 sequence (looked up): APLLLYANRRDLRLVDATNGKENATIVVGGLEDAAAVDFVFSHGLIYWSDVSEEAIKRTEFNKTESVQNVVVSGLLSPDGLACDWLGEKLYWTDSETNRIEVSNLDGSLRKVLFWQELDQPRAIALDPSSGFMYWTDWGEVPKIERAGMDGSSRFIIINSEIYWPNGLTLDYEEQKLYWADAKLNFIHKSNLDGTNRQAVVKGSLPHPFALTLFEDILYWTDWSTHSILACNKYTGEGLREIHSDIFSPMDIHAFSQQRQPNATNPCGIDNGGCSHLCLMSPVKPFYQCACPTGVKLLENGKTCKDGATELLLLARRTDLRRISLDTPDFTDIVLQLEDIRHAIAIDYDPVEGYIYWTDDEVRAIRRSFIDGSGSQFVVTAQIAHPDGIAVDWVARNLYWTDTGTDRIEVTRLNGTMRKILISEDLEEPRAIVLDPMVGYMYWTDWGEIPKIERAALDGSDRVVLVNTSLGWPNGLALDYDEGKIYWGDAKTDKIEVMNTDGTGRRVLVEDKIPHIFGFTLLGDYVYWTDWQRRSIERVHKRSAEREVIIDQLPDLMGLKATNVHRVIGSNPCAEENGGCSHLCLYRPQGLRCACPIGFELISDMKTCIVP
# assay-details: spot phage ELISA
recorded-metric: S/N vs BSA

[[record]]
binder = "GCANRVKRTSCKQDSDCLAGCVCGPNGFCG (designed binder) [LRP6_CKP22]"
reported = 42.9

[[record]]
binder = "GCRSNRIRCKQDSDCLAGCVCYGHGDCG (designed binder) [LRP6_CKP11]"
reported = 36.8

[[record]]
binder = "GCRSVNKICKQDSDCLAGCVCGSSRNCG (designed binder) [LRP6_CKP4]"
reported = 25.4

[[record]]
binder = "GCRNSIKRCKQNSDCLAGCVCSVGHGCG (designed binder) [LRP6_CKP6]"
reported = 37.4

